# Experiment description: qHTS assay to identify small molecule agonists of the vitamin D receptor (VDR) signaling pathway - cell viability counter screen (AID 743224); also: nearly all actives have a fitted effect of over 50% in size
# Setup conditions: VDR-bla HEK293T viability, CellTiter-Glo luminescence, 16 h; series mostly up to 62.6 µM
Inconclusive results are not listed. Activity calls are given as the source filed them. Calls follow the shape of the dose curve; as a rule, active = well fitted cell-killing curve with a large enough effect in the repeat runs; inconclusive = weak or mixed curves, or effect the other way; inactive = no such curve, though single readings can be large or run the other way.
# valid calls are true (active), false (inactive); nothing else

Take a look at these entries with their results.
Compound	Assigned label
O=C(c1ccccc1)c1cc(Cl)ccc1O	false
CCOC(=O)C1=C(C)NC(C)=C(C(=O)OCC)C1c1ccccc1/C=C/C(=O)OC(C)(C)C	false
Cc1ccc(CCn2c3c(c4cc(Cl)ccc42)CN(C)CC3)cn1	false

Task item: For CCN(CC)c1ccc(N)cc1 , what call appears in the results of this test?
Reply: true

Task item: For COc1cccc(CCc2ccccc2OCC(CN(C)C)OC(=O)CCC(=O)O)c1 (stereo unspecified) , what call appears in the results of this test?
Reply: false

Task item: For CCN1CCN(c2cc(-c3ccc(F)cc3)c3c(n2)CCCCCC3)CC1 , what call appears in the results of this test?
Reply: false

Task item: For CCCCCCCCCCCCCC[n+]1ccccc1 , what call appears in the results of this test?
Reply: true

Task item: For O=S(=O)(O)CCCN1CCOCC1 , what call appears in the results of this test?
Reply: false

Task item: For CCCCOC(=O)C(C)CC (stereo unspecified) , what call appears in the results of this test?
Reply: true

Task item: For CCCCCCCCCCCCCCCC , what call appears in the results of this test?
Reply: false

Task item: For CO[C@H]1C=CO[C@@]2(C)Oc3c(C)c(O)c4c(O)c(cc(O)c4c3C2=O)NC(=O)/C(C)=C\C=C/[C@H](C)[C@H](O)[C@@H](C)[C@@H](O)[C@@H](C)[C@H](OC(C)=O)[C@@H]1C , what call appears in the results of this test?
Reply: false

* * *

# Experiment description: qHTS assay to identify small molecule agonists of the hypoxia (HIF-1) signaling pathway - cell viability counter screen (AID 1224844); also: nearly all actives have a fitted effect of over 50% in size; also: potency is read from the fitted curve at half-maximal effect
# Setup conditions: HRE-bla ME-180 viability, CellTiter-Glo luminescence, 17 h; series mostly up to 76.8 µM
Results filed as inconclusive are left out. Activity calls are given as the source filed them. The call rests on the fitted dose curve.
Measured metric: Potency

These recorded examples may help you get a feel for the data.
In [3]: df
Out[3]:
                                   molecule  measured_metric             value
0                           NCCCCCCNCCCCCCN          Potency          inactive
1                  Clc1ccccc1CN1CCc2sccc2C1          Potency          inactive
2  C[C@]12CC[C@H]3C(=CCc4cc(O)ccc43)[C@@H]1CCC2=O          Potency  38.9 µM (active)
3  CC(C)c1cccc(C(C)C)c1N1C(=O)c2ccc(O)cc2C1=O          Potency          inactive

Task item: Could you tell me which Potency is on file for CCCCCCCCCCCCCCCC ?
Reply: inactive

Task item: Could you tell me which Potency is on file for CCCCCCCOC(=O)c1ccccc1C(=O)OCCCCCCC ?
Reply: inactive

Task item: Could you tell me which Potency is on file for CC(C)N=C(N)/N=C(\N)Nc1ccc(Cl)cc1 ?
Reply: inactive

Task item: Could you tell me which Potency is on file for CCCCN(C)C ?
Reply: inactive

Task item: Could you tell me which Potency is on file for Cc1cncc(C)c1 ?
Reply: inactive

Task item: Could you tell me which Potency is on file for COc1ccc(-n2nc(CCC(=O)N(C)O)cc2-c2ccc(Cl)cc2)cc1 ?
Reply: 19 µM (active)

Task item: Could you tell me which Potency is on file for O=C1OC(=O)c2ccc3c4c(ccc1c24)C(=O)OC3=O ?
Reply: inactive

Task item: Could you tell me which Potency is on file for O=S(=O)(O)CCCN1CCOCC1 ?
Reply: inactive

Task item: Could you tell me which Potency is on file for N#CSCSc1nc2ccccc2s1 ?
Reply: 6.92 µM (active)

Task item: Could you tell me which Potency is on file for O=Nc1ccc(NO)cc1 ?
Reply: inactive

* * *

# Experiment description: qHTS assay to identify small molecule antagonists of the constitutive androstane receptor (CAR) signaling pathway - cell viability counter screen (AID 1224837); also: % is scaled to controls: 0 for no effect and ±100 for the full control effect; nearly all actives have a fitted effect of over 45% in size
# Setup conditions: HepG2-CYP2B6-hCAR viability, CellTiter-Fluor, 23 h, co-treated with 50 nM CITCO; series mostly up to 92.4 µM
# Experimental: National Center for Advancing Translational Sciences [NCATS] NIH Chemical Genomics Center [NCGC] U.S. Environmental Protection Agency [EPA] National Institutes of Environmental Health Sciences [NIEHS] National Toxicology Program [NTP] […] A double-stable (hCAR and CYP2B6-2.2kb) transfected cell line, derived from human hepatoma (HepG2) cells, was utilized for the duration of the quantitative high-throughput screens. […] The fluorescence intensity in the plates was then measured using a ViewLux plate reader.
Results filed as inconclusive are left out. Activity calls are given as the source filed them. Calls come from the whole dose curve; as a rule, active = well fitted cell-killing curve with a large enough effect in the repeat runs; inconclusive = weak or mixed curves, or effect the other way; inactive = flat fitted curve, though single readings scatter.
activity change, negative = cytotoxicity reference

These recorded examples may help you get a feel for the data.
>>> print(df.to_string())
                                   compound                           measured_metric                            value
0  CCC(=O)CC(C)CC (configuration not stated)  activity change, negative = cytotoxicity   5.84% [at 0.349 µM] (inactive)
1         N[C@@H](CSSC[C@H](N)C(=O)O)C(=O)O  activity change, negative = cytotoxicity  -3.15% [at 0.349 µM] (inactive)
2  O=S(=O)(O)c1cc(S(=O)(=O)O)c2ccc3c(S(=O)(=O)O)cc(S(=O)(=O)O)c4ccc1c2c43  activity change, negative = cytotoxicity    0.0028% [at 19 µM] (inactive)
3                                   O=S(O)O  activity change, negative = cytotoxicity     -3.41% [at 19 µM] (inactive)
4                    O=C=NCc1cccc(CN=C=O)c1  activity change, negative = cytotoxicity    -0.191% [at 19 µM] (inactive)

Task item: Could you tell me which activity change, negative = cytotoxicity is on file for C=C/C=C/C=C/CCCCC ?
Reply: -1.33% [at 19 µM] (inactive)

Task item: Could you tell me which activity change, negative = cytotoxicity is on file for C=CC(=C)CC/C=C(\C)CCC=C(C)C ?
Reply: -2.25% [at 19 µM] (inactive)

* * *

# Experiment description: Human pregnane X receptor (PXR) small molecule agonists, qHTS cell viability counter screen (AID 1346977); also: nearly all actives have a fitted effect of over 50% in size
# Setup conditions: PXR-Luc HepG2 viability, CellTiter-Fluor, 24 h; series mostly up to 92.4 µM
Records with an inconclusive call do not appear. The source made the active and inactive calls. The call rests on the fitted dose curve; in most records, active means well fitted cell-killing curve with a large enough effect in the repeat runs; inconclusive means weak or mixed curves, or effect the other way; inactive means flat fitted curve, though single readings scatter.
# valid calls are YES (active), NO (inactive); nothing else

Take a look at these entries with their results.
Compound	Assigned label
CC(C)(C)c1cc(/C=C2\SC(=N)NC2=O)cc(C(C)(C)C)c1O	YES
C=C(c1ccc(C(=O)O)cc1)c1cc2c(cc1C)C(C)(C)CCC2(C)C	NO
O=C1NC2CCCCN2C12CCN(CCCN1c3ccccc3CCc3ccc(Cl)cc31)CC2 (stereo not drawn)	YES
NC1(c2ccc(-c3nc4ccn5c(=O)[nH]nc5c4cc3-c3ccccc3)cc2)CCC1	YES

Task item: For C[C@H]1O[C@@H](O[C@H]2[C@@H](O)C[C@H](O[C@H]3[C@@H](O)C[C@H](O[C@H]4CC[C@@]5(C)[C@H](CC[C@@H]6[C@@H]5C[C@@H](O)[C@]5(C)[C@@H](C7=CC(=O)OC7)CC[C@]65O)C4)O[C@@H]3C)O[C@@H]2C)C[C@H](O)[C@@H]1O , what call appears in the results of this test?
Reply: NO

Task item: For COc1ccccc1OCCNCC(O)COc1cccc2[nH]c3ccccc3c12 (stereo not drawn) , what call appears in the results of this test?
Reply: YES

Task item: For C=CC(C)C#N (stereo not drawn) , what call appears in the results of this test?
Reply: NO

Task item: For CCCCN(C)C , what call appears in the results of this test?
Reply: NO

Task item: For CC(=O)c1ccccc1N , what call appears in the results of this test?
Reply: NO

* * *

# Experiment description: A CellTox Green Cytotoxicity Assay to monitor cytotoxicity in HEK293 cells - 40 hour (AID 1224871); also: nearly all actives have a fitted effect of over 45% in size; also: potency is read from the fitted curve at half-maximal effect
# Setup conditions: CellTox Green fluorescence; series mostly up to 76.8 µM
Records with an inconclusive call do not appear. Active and inactive are the calls of the source. The call rests on the fitted dose curve; in most records, active means well fitted activation curve with a large enough effect in the repeat runs; inconclusive means weak or mixed curves; inactive means flat fitted curve, though single readings scatter.
Measured metric: Potency

These recorded examples may help you get a feel for the data.
In [3]: df
Out[3]:
                                   compound             value
0                 CCCCCCCCCCCCCC[n+]1ccccc1  38.9 µM (active)
1  CCCCCCC(C)OC(=O)COc1nc(F)c(Cl)c(N)c1Cl (centres undefined)          inactive
2                             C[Si](C)(C)Cl          inactive
3  Cc1nc(Nc2ncc(C(=O)Nc3c(C)cccc3Cl)s2)cc(N2CCN(CCO)CC2)n1          inactive
4                                   CCCCOCC          inactive

Task item: Could you tell me which Potency is on file for O=Nc1ccc(NO)cc1 ?
Reply: inactive

Task item: Could you tell me which Potency is on file for COc1nccnc1CC(C)C ?
Reply: inactive

Task item: Could you tell me which Potency is on file for c1cc2c3c(c1)ccc1cccc(c13)C2 ?
Reply: 50 µM (active)

Task item: Could you tell me which Potency is on file for CCCCCCS ?
Reply: inactive

Task item: Could you tell me which Potency is on file for COc1cccc(CCc2ccccc2OCC(CN(C)C)OC(=O)CCC(=O)O)c1 (centres undefined) ?
Reply: inactive
